# TARGET OR TEST SYSTEM: Neuropeptide Y receptor type 1 (Homo sapiens)
# Sequence (P25929 whole entry): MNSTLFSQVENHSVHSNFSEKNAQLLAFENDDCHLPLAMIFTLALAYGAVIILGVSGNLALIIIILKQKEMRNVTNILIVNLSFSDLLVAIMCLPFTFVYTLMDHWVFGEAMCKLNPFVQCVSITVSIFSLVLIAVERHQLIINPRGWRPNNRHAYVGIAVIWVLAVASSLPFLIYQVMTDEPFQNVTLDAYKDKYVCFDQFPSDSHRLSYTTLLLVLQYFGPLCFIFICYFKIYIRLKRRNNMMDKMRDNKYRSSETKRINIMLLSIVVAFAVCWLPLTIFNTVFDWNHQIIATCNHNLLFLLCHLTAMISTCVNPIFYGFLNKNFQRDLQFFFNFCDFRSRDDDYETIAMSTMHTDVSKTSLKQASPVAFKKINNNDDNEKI
Measured log10 Ki, listed per entry.
Hey, these are logged values: log10 of Ki, nM being the unit before logging.

As a guide, the following entries are already answered.
| COMPOUND | log10 Ki |
| --- | --- |
| CC(C)CNC(=O)Nc1cccc(CN2C(=O)C(NC(=O)Nc3ccccc3)CCc3ccccc32)c1 (stereo not drawn) | 2.15 |
| CC(C)NC(=O)Nc1cccc(CN2C(=O)C(N=C(Nc3ccc(O)cc3)NC(C)C)CCc3ccccc32)c1 (stereo not drawn) | 1.56 |
| CC(C)NC(=O)Nc1cccc(CN2C(=O)C(NC(=O)Nc3ccc4c(c3)C(=O)N(C)C4=O)CCc3ccccc32)c1 (stereo not drawn) | 2.89 |
| CC(C)NC(=O)Nc1cccc(CN2C(=O)C(NC(=O)Nc3ccccc3)CCCc3ccccc32)c1 (stereo not drawn) | 1.75 |
| CC(C)NC(=O)Nc1cccc(CN2C(=O)C(NC(=O)Nc3ccc4c(c3)C(=O)NC4=O)CCc3ccccc32)c1 (stereo not drawn) | 1.40 |
| CC(C)NC(=O)Nc1cccc(CN2C(=O)C(NC(=O)Nc3cnc4ccccc4c3)CCc3ccccc32)c1 (stereo not drawn) | 2.15 |

Item C/N=C(/Nc1ccc(O)cc1)NC1CCc2ccccc2N(Cc2cccc(NC(=O)NC(C)C)c2)C1=O (stereo not drawn) ; assay system Neuropeptide Y receptor type 1 (Homo sapiens); log10 Ki reported as 0.86

Item CC(C)NC(=O)Nc1cccc(CN2C(=O)C(NC(=O)Nc3ccc4c(c3)OCCO4)CCc3ccccc32)c1 (stereo not drawn) ; assay system Neuropeptide Y receptor type 1 (Homo sapiens); log10 Ki reported as 1.26

Item CC(C)NC(=O)Nc1cccc(CN2C(=O)C(NC(=O)Nc3ccccc3)CCc3ccccc32)c1 (stereo not drawn) ; assay system Neuropeptide Y receptor type 1 (Homo sapiens); log10 Ki reported as 1.63

====

# TARGET OR TEST SYSTEM: Neuropeptide Y receptor type 1 (Homo sapiens, UniProt P25929)
# Sequence (P25929 whole entry): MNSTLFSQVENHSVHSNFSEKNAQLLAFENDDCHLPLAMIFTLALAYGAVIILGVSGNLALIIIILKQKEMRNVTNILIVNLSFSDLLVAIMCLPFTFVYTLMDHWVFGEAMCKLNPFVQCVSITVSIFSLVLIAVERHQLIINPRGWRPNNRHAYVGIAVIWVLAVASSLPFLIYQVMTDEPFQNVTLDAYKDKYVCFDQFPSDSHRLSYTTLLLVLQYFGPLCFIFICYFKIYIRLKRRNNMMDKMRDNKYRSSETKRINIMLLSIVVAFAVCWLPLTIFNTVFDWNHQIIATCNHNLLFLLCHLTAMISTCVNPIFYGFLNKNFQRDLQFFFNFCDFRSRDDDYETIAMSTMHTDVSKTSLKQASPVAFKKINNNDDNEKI
MEASURE NAME: Ki

| COMPOUND | Ki |
| --- | --- |
| O=C(Nc1ccccc1)NC1CCc2ccccc2N(Cc2cccc(NC(=O)Oc3ccccc3)c2)C1=O (centres undefined) | > 10 µM |
| O=C(Nc1ccccc1)Nc1cccc(CN2C(=O)C(NC(=O)Nc3ccccc3)CCc3ccccc32)c1 (centres undefined) | > 10 µM |
| COC(=O)Nc1cccc(CN2C(=O)C(NC(=O)Nc3ccccc3)CCc3ccccc32)c1 (centres undefined) | > 0.01 µM |

Kindly consider the entry below.
get_value(item= Nc1cccc(CN2C(=O)C(NC(=O)Nc3ccccc3)CCc3ccccc32)c1 (centres undefined) , readout=Ki) returns > 10 µM
